Biological target: T1, human IL-23R (human, UniProt Q5VWK5 24-629)
T1 sequence: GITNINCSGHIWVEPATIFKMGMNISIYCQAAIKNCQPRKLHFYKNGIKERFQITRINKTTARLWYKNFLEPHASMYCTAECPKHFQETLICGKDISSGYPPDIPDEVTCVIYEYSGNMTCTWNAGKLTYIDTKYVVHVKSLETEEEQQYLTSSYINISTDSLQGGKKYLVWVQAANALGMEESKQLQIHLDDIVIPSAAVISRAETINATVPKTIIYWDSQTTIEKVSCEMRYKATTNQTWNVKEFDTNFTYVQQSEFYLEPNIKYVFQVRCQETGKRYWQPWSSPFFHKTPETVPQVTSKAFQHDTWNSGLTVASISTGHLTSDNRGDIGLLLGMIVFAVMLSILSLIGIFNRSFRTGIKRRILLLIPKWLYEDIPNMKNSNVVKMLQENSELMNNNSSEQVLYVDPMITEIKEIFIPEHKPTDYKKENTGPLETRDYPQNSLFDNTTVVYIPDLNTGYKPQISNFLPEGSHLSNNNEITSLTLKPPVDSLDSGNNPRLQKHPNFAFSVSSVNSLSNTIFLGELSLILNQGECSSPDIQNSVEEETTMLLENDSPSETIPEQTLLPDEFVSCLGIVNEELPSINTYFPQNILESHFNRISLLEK
Experiment: cell-based or functional assay
Exercise: state measured IC50, IL-23-stimulated STAT3 phosphorylation in CD4 lymphocytes of human whole blood for each of the binders provided.
Answers are plain numbers, in ng/mL.

Answered examples (3):
Note to self: IC50, IL-23-stimulated STAT3 phosphorylation in CD4 lymphocytes of human whole blood recorded for fully human antibody 25-3 (antibody, human IgG1, kappa, V domains shown, Human Ig gamma1 / human kappa constant regions; also called 25-3 (fully human); fully human 25-3 antibody) VH: QVQLQESGPGQVKPSQTLSLTCSVSGGSIDSGDHYWTWIRQHPGEVLEWIGYIYSSGHTYYSPSLKSRLTMSLDTSKNQFSLRLSSVTAADTAVYYCARVGDYEWFDTWGQGTLVTVSS VL: DIVMTQSPDSLAVSLGERATINCKSSQTILYPSNNMNYLGWYQQRAGQSPRLLIYWASTRESGVPDRFSGSGSGTDFTLTISSLQAEDVAVYYCQQYYSSLPTFGQGTKVEIKR was 0.7

The binder listed as fully human antibody 30-16 (antibody, human IgG1, kappa, V domains shown, Human Ig gamma1 / human kappa constant regions; also called 30-16 (fully human); fully human 30-16 antibody) VH: QVQVVQSGAEVKKPGASVKVSCKVSGYTLIELAIHWVRQVPGKGLEWMGGFDPEHGETIYAQKFQGRVTMTEDTSTDTAYMELNNLRSEDTAVYYCAILEAGDLDCWGQGTLVTVSS VL: DIQMTQSPSSVSASVGDRVTITCRASQGISNWLAWYQQKPGKAPKVLIYTASSLQSGVPSRFSGSGSGTDFTLTVSGLQPEDFGTYYCQQANSFPFTFGPGTKVDIKR has a reported IC50, IL-23-stimulated STAT3 phosphorylation in CD4 lymphocytes of human whole blood of 4.5

Noted for fully human antibody 34-58 (antibody, human IgG1, kappa, V domains shown, Human Ig gamma1 / human kappa constant regions; also called 34-58 (fully human); fully human 34-58 antibody) VH: QVHLVQSGTEVRKPGASVKVSCKVSGYTLNELAIHWVRQAPGKGLEWMGGFDPEHGEIIYAQRFQGRITLPEDTSTDTAYMDLVNLRSEDTAVYFCTTEAAPFDYWGQGSLVIVSS VL: DIQMTQSPSTLSASVGDRVTITCRASQSLSNWLAWYQQKPGKAPKLLIYKASSLESGVPSRFSGSGSGTDFTLTISGLQPDDFATYYCQQYDIYPRTFGQGTKVEIKR : its IC50, IL-23-stimulated STAT3 phosphorylation in CD4 lymphocytes of human whole blood reads 0.51

Consider now this further binder.
Data point: fully human antibody 32-28 (antibody, human IgG1, kappa, V domains shown, Human Ig gamma1 / human kappa constant regions; also called 32-28 (fully human); fully human 32-28 antibody) VH: QVHLVQSGTEVRKPGASVKVSCKVSGYTLNELAIHWVRQAPGKGLEWMGGFDPEHGEIIYAQRFQGRVTLPEDTSTDTAYLDLFNLRSEDTAVYFCATEAAPFDYWGQGTLVIVSS VL: DIQMTQSPSTLSASVGDRVTITCRASQSLSSWLAWYQQKPGKAPKLLIYKASSLESGVPSRFSGSGSGTDFTLTISSLQPDDFATYYCQQYDIYPRTFGQGTKVEIKR ; IC50, IL-23-stimulated STAT3 phosphorylation in CD4 lymphocytes of human whole blood = 0.16
